target: T1, RSV F ectodomain stabilized in the postfusion conformation (F ΔFP), subtype A (Respiratory syncytial virus subtype A, UniProt P03420 26-109; P03420 147-524); test: BLI, IgG on AHQ sensor, 100 nM antigen
T1 construct: extracellular domain; trimer; furin-cleaved; also called Postfusion subtype A
pKd: −log10 of the molar value.
Measured pKd by item
Observation Type: pKd

binder="ADI-14460 (antibody, V domains shown, full-length IgG (yeast-expressed); also called Antibody Number 23; Ab# 23) VH: QVQLQQWGAGLLKPSETLSLSCTVSGGVFGNYFWSWVRQAPGKGLEWIGEINQIGTTNYSPSASLKSRVTISVDPSRNQFSLSLRSVTAADTARYYCTRSETSDYFDSSGYAFHIWGEGTMVTVSS VL: LPVLTQPASVSGSPGQSITISCSGISSDGGRYNYVSWYQQHPGKAPKLLIYDDSNWPLGVSHRFSGSKSGNTASLTISGLRAEDEADYYCGSYTDTNRLFGGGTQLTVL" observation_type=pKd data_value=8.54
binder="ADI-14492 (antibody, V domains shown, full-length IgG (yeast-expressed); also called Antibody Number 53; Ab# 53) VH: EVQLVESGGGLVRPGGSLGLSCSASGFIFSNAWMTWVRQAPGKGLEWVGHIKSKVNGGTTAYGAPVKGRFTISRDDSRNTLFLQMNSLKTEDTGVYYCTTGPPYQYFDDSGYSVVDYWGQGTLVTVSS VL: QSVVTQPPSASGTPGQRVTISCSGSDSNIGTDYFYWYQQLPGSAPKLLIYGSNQRPSGVPDRFSGSQSGSAASLAISGLRSEDDADYYCAAWDDSLGGPVFGGGTKVTVL" observation_type=pKd data_value=9.78
